assay: Plasma concentrations in repeat-dosing study, satellite rats; type: in vivo, rat; conditions: male, Sprague Dawley, rat, plasma, po, 1.5 mg/kg/day, rat, FTY720 1.5 mg/kg/d p.o., Day 1, 8 hr post-dose, mean±SEM
METRIC_NAME: concentration at 8 h (nM)

{"COMPOUND": "CCCCCCCCc1ccc(CCC(N)(CO)CO)cc1 [FTY720]", "READING_UNIT": "nM", "READOUT_VALUE": 53}

====

test: Plasma concentrations in repeat-dosing study, satellite rats; assay type: in vivo, rat; conditions: male, Sprague Dawley, rat, plasma, po, 30 mg/kg/day, rat, BAF312 30.0 mg/kg/d p.o., Day 1, 4 hr post-dose, mean±SEM
METRIC_NAME: concentration at 4 h (µM)

{"COMPOUND": "CCc1cc(/C(C)=N/OCc2ccc(C3CCCCC3)c(C(F)(F)F)c2)ccc1CN1CC(C(=O)O)C1 [BAF312]", "READOUT_VALUE": 6.4}
